# assay method text: Selectivity index, ratio of IC50 for rat L6 cells to IC50 for Trypanosoma cruzi Tulahuen C4 intracellular amastigote infected in rat L6 cells
# Type: toxicity, cell-based
# settings: read-out: Ratio IC50
Reported selectivity ratio is given for each of the following compounds.
Answer using only a numeral; do not append any unit.

The following compounds have reported results that may help.
compound: CC1(C)CCc2c(ccc(CNCCCc3ccccc3)c2O)O1
selectivity ratio: 0.9
--
compound: CC1(C)CCc2cc(C(O)CNCCCc3ccccc3)c(O)cc2O1 (stereo unspecified)
selectivity ratio: 0.9
--
compound: CC1(C)CCc2cc(CNCCCCc3ccccc3)c(O)cc2O1
selectivity ratio: 1
--
compound: CC1(C)CCc2cc(CNCCCc3ccccc3)c(O)cc2O1
selectivity ratio: 0.4
--
compound: CC1(C)CCc2c(ccc(CNCc3ccccc3)c2O)O1
selectivity ratio: 1

Please find the next compound below.
What value of selectivity ratio has been recorded for this entry: CC1(C)CCc2cc(CNCCc3ccccc3)c3c(c2O1)CCC(C)(C)O3
0.4

Taken from ChEMBL document CHEMBL5096178.
